Subject of test: human CD3 on cells (human PBMC; Jurkat TCR/CD3 NFAT reporter cells) (human, UniProt P07766 23-207; P04234 22-171; P09693 23-182)
Sequence (P07766 23-207, chain 1 of 3): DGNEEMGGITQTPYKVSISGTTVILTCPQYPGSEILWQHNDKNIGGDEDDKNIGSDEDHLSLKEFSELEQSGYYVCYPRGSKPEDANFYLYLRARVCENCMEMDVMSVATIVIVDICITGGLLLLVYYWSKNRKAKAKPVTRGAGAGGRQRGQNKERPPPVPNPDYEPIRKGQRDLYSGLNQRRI
Sequence (P04234 22-171, chain 2 of 3): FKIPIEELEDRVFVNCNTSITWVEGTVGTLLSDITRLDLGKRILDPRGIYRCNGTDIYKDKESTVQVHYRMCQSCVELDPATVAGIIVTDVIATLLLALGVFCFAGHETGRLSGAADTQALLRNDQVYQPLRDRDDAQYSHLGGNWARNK
Sequence (P09693 23-182, chain 3 of 3): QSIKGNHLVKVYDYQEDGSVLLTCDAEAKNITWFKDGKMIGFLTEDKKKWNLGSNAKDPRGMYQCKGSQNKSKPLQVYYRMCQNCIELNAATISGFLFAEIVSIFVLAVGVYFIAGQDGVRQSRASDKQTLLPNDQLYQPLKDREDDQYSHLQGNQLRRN
Measurement protocol: cell-based or functional assay; also: unit not given here
Metric: Emax

Binder	Quantitative readout
Hu155A9B1-14 (antibody, V domains shown, humanized mAb) VH: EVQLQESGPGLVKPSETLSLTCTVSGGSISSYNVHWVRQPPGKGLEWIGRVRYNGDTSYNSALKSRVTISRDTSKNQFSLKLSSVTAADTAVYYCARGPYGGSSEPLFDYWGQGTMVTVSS VL: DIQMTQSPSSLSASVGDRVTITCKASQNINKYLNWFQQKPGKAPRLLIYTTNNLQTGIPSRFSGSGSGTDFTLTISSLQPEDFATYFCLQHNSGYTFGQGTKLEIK	1100
Hu155A9B1-10 (antibody, V domains shown, humanized mAb) VH: EVQLQESGPGLVKPSETLSLTCTVSGGSISSYNVHWVRQPPGKGLEWMGRVRYNGDTSYNSALKSRLTISRDTSKNQFSLKLSSVTAADTAVYYCTRGPYGGSSEPLFDYWGQGTMVTVSS VL: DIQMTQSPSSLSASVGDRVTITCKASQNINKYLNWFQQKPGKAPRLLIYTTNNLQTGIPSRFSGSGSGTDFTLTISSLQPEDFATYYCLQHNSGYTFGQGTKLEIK	1380
Hu153A6B1-12 (antibody, V domains shown, humanized mAb) VH: EVQLQESGPGLVKPSETLSLTCTVSGFSLTSYNIHWVRQPPGKGLEWMGRIRYNGDTSYNSALKSRLTISRDTSKNQVSLKLSSVTAADTAVYYCTRGPYGGSREPLFDYWGQGTMVTVSS VL: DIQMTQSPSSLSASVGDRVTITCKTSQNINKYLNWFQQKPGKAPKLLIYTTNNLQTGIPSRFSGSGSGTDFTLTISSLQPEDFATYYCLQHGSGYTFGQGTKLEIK	4830
Hu153A6B1-15 (antibody, V domains shown, humanized mAb) VH: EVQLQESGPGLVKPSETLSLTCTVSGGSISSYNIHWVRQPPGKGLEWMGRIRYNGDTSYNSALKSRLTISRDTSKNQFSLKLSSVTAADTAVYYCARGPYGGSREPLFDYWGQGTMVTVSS VL: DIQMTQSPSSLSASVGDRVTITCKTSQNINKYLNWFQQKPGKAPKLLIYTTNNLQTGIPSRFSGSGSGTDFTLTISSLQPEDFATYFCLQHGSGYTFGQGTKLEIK	4150
Hu155A9B1-17 (antibody, V domains shown, humanized mAb) VH: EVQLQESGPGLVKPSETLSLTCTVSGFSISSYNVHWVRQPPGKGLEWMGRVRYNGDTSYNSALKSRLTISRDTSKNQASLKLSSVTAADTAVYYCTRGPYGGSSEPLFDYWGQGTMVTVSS VL: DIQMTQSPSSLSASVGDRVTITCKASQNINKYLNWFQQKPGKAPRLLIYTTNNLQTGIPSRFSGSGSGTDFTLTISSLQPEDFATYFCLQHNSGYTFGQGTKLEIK	4370
